FYI, the data here is from the supplement of paper PMC10307832.

tested on: NCI-H460; test: relative viability (nuclei count vs DMSO), 5 days (fraction); higher = more cells survive; settings: first compound 0.8 µM
# YES = relative viability below 0.4 (exclusive); NO = relative viability at/above 0.4

Take a look at these entries with their results.
- compound: "Oc1nc(-c2ccc(C(F)(F)F)cc2)nc2c1CSCC2 [XAV939] + CS(=O)(=O)CCNCc1ccc(-c2ccc3ncnc(Nc4ccc(OCc5cccc(F)c5)c(Cl)c4)c3c2)o1 [Lapatinib] (partner 2 µM)"
  assigned label: "NO"
- compound: "Oc1nc(-c2ccc(C(F)(F)F)cc2)nc2c1CSCC2 [XAV939] + COc1cc2c(Oc3ccc(NC(=O)C4(C(=O)Nc5ccc(F)cc5)CC4)cc3F)ccnc2cc1OCCCN1CCOCC1 [Foretinib] (partner 0.25 µM)"
  assigned label: "NO"
- compound: "Oc1nc(-c2ccc(C(F)(F)F)cc2)nc2c1CSCC2 [XAV939] + CC(=O)Nc1cccc(-n2c(=O)n(C3CC3)c(=O)c3c(Nc4ccc(I)cc4F)n(C)c(=O)c(C)c32)c1 [Trametinib] (partner 0.02 µM)"
  assigned label: "YES"
- compound: "Oc1nc(-c2ccc(C(F)(F)F)cc2)nc2c1CSCC2 [XAV939] + CS(=O)(=O)N1CCN(Cc2cc3nc(-c4cccc5[nH]ncc45)nc(N4CCOCC4)c3s2)CC1 [Pictilisib] (partner 1 µM)"
  assigned label: "YES"

Kindly consider the entry below.
Ask | Problem: For the compound C=C1C(=O)O[C@@H](CCCCCCCC)[C@@H]1C(=O)O [C-75] + CS(=O)(=O)N1CCN(Cc2cc3nc(-c4cccc5[nH]ncc45)nc(N4CCOCC4)c3s2)CC1 [Pictilisib] (partner 1 µM) , is relative viability under 0.4?
Reply | YES

---

tested on: NCI-H647; experiment: relative viability (nuclei count vs DMSO), 5 days (fraction); higher = more cells survive; settings: first compound 0.005 µM
relative viability by entry:

- compound: "CC1(C)CCC(c2ccc(Cl)cc2)=C(CN2CCN(c3ccc(C(=O)NS(=O)(=O)c4ccc(N[C@H](CCN5CCOCC5)CSc5ccccc5)c(S(=O)(=O)C(F)(F)F)c4)cc3)CC2)C1 [Navitoclax] + CC(=O)c1c(C)c2cnc(Nc3ccc(N4CCNCC4)cn3)nc2n(C2CCCC2)c1=O [Palbociclib] (partner 0.5 µM)"
  relative viability: 0.336

Proceed to the following item.
Ask | Could you share which relative viability value was measured for CC1(C)CCC(c2ccc(Cl)cc2)=C(CN2CCN(c3ccc(C(=O)NS(=O)(=O)c4ccc(N[C@H](CCN5CCOCC5)CSc5ccccc5)c(S(=O)(=O)C(F)(F)F)c4)cc3)CC2)C1 [Navitoclax] + CCNC(=O)c1noc(-c2cc(C(C)C)c(O)cc2O)c1-c1ccc(CN2CCOCC2)cc1 [Luminespib] (partner 0.01 µM) ?
Reply | 0.271

---

relative viability by entry:
system: NCI-H838; assay: relative viability (nuclei count vs DMSO), 5 days (fraction); higher = more cells survive; conditions: first compound 0.1265 µM

- compound: "O=C(O)c1ccc(-c2c[nH]c3ncc(-c4ccccc4)cc23)cc1C1CCCC1 + Cc1cc(Nc2cc(N3CCN(C)CC3)nc(Sc3ccc(NC(=O)C4CC4)cc3)n2)n[nH]1 [Tozasertib] (partner 0.1 µM)"
  relative viability: 0.274

Ask | Could you share which relative viability value was measured for O=C(O)c1ccc(-c2c[nH]c3ncc(-c4ccccc4)cc23)cc1C1CCCC1 + CS(=O)(=O)CCNCc1ccc(-c2ccc3ncnc(Nc4ccc(OCc5cccc(F)c5)c(Cl)c4)c3c2)o1 [Lapatinib] (partner 2 µM) ?
Reply | 1.4

Ask | Could you share which relative viability value was measured for O=C(O)c1ccc(-c2c[nH]c3ncc(-c4ccccc4)cc23)cc1C1CCCC1 + Nc1ncn([C@H]2C[C@H](O)[C@@H](CO)O2)c(=O)n1 [Decitabine] (partner 2 µM) ?
Reply | 0.475

Ask | Could you share which relative viability value was measured for O=C(O)c1ccc(-c2c[nH]c3ncc(-c4ccccc4)cc23)cc1C1CCCC1 + O=C(CCCCCCC(=O)Nc1ccccc1)NO [Vorinostat] (partner 1 µM) ?
Reply | 0.773

---

test system: EMC-BAC-2; test: relative viability (nuclei count vs DMSO), 5 days (fraction); higher = more cells survive; conditions: first compound 1.265 µM
readout label: relative viability
// return a plain number; no unit text

- compound: "O=C(O)c1ccc(-c2c[nH]c3ncc(-c4ccccc4)cc23)cc1C1CCCC1 + CS(=O)(=O)N1CCN(Cc2cc3nc(-c4cccc5[nH]ncc45)nc(N4CCOCC4)c3s2)CC1 [Pictilisib] (partner 1 µM)"
  test result: 0.554
- compound: "O=C(O)c1ccc(-c2c[nH]c3ncc(-c4ccccc4)cc23)cc1C1CCCC1 + Cc1nc(Nc2ncc(C(=O)Nc3c(C)cccc3Cl)s2)cc(N2CCN(CCO)CC2)n1 [Dasatinib] (partner 0.075 µM)"
  test result: 0.294

Proceed to the following item.
Ask | Could you share which relative viability value was measured for O=C(O)c1ccc(-c2c[nH]c3ncc(-c4ccccc4)cc23)cc1C1CCCC1 + CCNC(=O)c1noc(-c2cc(C(C)C)c(O)cc2O)c1-c1ccc(CN2CCOCC2)cc1 [Luminespib] (partner 0.01 µM) ?
Reply | 0.975

---

relative viability by entry:
test system: ABC-1; experiment: relative viability (nuclei count vs DMSO), 5 days (fraction); higher = more cells survive; settings: first compound 0.05 µM
// return a plain number; no unit text

Ask | Could you share which relative viability value was measured for CC1(C)CCC(c2ccc(Cl)cc2)=C(CN2CCN(c3ccc(C(=O)NS(=O)(=O)c4ccc(N[C@H](CCN5CCOCC5)CSc5ccccc5)c(S(=O)(=O)C(F)(F)F)c4)cc3)CC2)C1 [Navitoclax] + CS(=O)(=O)N1CCN(Cc2cc3nc(-c4cccc5[nH]ncc45)nc(N4CCOCC4)c3s2)CC1 [Pictilisib] (partner 1 µM) ?
Reply | 0.686

Ask | Could you share which relative viability value was measured for CC1(C)CCC(c2ccc(Cl)cc2)=C(CN2CCN(c3ccc(C(=O)NS(=O)(=O)c4ccc(N[C@H](CCN5CCOCC5)CSc5ccccc5)c(S(=O)(=O)C(F)(F)F)c4)cc3)CC2)C1 [Navitoclax] + CC(=O)c1c(C)c2cnc(Nc3ccc(N4CCNCC4)cn3)nc2n(C2CCCC2)c1=O [Palbociclib] (partner 0.5 µM) ?
Reply | 0.691

Ask | Could you share which relative viability value was measured for CC1(C)CCC(c2ccc(Cl)cc2)=C(CN2CCN(c3ccc(C(=O)NS(=O)(=O)c4ccc(N[C@H](CCN5CCOCC5)CSc5ccccc5)c(S(=O)(=O)C(F)(F)F)c4)cc3)CC2)C1 [Navitoclax] + Cc1nc(Nc2ncc(C(=O)Nc3c(C)cccc3Cl)s2)cc(N2CCN(CCO)CC2)n1 [Dasatinib] (partner 0.075 µM) ?
Reply | 0.49

---

system: NCI-H1975; assay: relative viability (nuclei count vs DMSO), 5 days (fraction); higher = more cells survive; conditions: first compound 0.4 µM
readout label: relative viability

- compound: "O=C(O)c1ccc(-c2c[nH]c3ncc(-c4ccccc4)cc23)cc1C1CCCC1 + CC(C)C[C@H](NC(=O)[C@H](Cc1ccccc1)NC(=O)c1cnccn1)B(O)O [Bortezomib] (partner 0.002 µM)"
  relative viability: 0.335
- compound: "O=C(O)c1ccc(-c2c[nH]c3ncc(-c4ccccc4)cc23)cc1C1CCCC1 + CS(=O)(=O)CCNCc1ccc(-c2ccc3ncnc(Nc4ccc(OCc5cccc(F)c5)c(Cl)c4)c3c2)o1 [Lapatinib] (partner 2 µM)"
  relative viability: 1
- compound: "O=C(O)c1ccc(-c2c[nH]c3ncc(-c4ccccc4)cc23)cc1C1CCCC1 + COc1cccc2cc(-c3nc([C@H]4CC[C@H](C(=O)O)CC4)n4ncnc(N)c34)[nH]c12 [OSI-027] (partner 0.5 µM)"
  relative viability: 0.648
- compound: "O=C(O)c1ccc(-c2c[nH]c3ncc(-c4ccccc4)cc23)cc1C1CCCC1 + C[C@@H](Oc1cc(-c2cnn(C3CCNCC3)c2)cnc1N)c1c(Cl)ccc(F)c1Cl [Crizotinib] (partner 1 µM)"
  relative viability: 0.923

Ask | Could you share which relative viability value was measured for O=C(O)c1ccc(-c2c[nH]c3ncc(-c4ccccc4)cc23)cc1C1CCCC1 + COc1cc2c(Oc3ccc(NC(=O)C4(C(=O)Nc5ccc(F)cc5)CC4)cc3F)ccnc2cc1OCCCN1CCOCC1 [Foretinib] (partner 0.25 µM) ?
Reply | 0.985

---

relative viability by entry:
tested on: LOU-NH91; assay: relative viability (nuclei count vs DMSO), 5 days (fraction); higher = more cells survive; details: first compound 1 µM
// return a plain number; no unit text

Ask | Could you share which relative viability value was measured for NC(=O)Nc1cc(-c2cccc(F)c2)sc1C(=O)N[C@H]1CCCNC1 [AZD7762] + CS(=O)(=O)N1CCN(Cc2cc3nc(-c4cccc5[nH]ncc45)nc(N4CCOCC4)c3s2)CC1 [Pictilisib] (partner 1 µM) ?
Reply | 0.595

Ask | Could you share which relative viability value was measured for NC(=O)Nc1cc(-c2cccc(F)c2)sc1C(=O)N[C@H]1CCCNC1 [AZD7762] + Cc1nc(Nc2ncc(C(=O)Nc3c(C)cccc3Cl)s2)cc(N2CCN(CCO)CC2)n1 [Dasatinib] (partner 0.075 µM) ?
Reply | 0.49

Ask | Could you share which relative viability value was measured for NC(=O)Nc1cc(-c2cccc(F)c2)sc1C(=O)N[C@H]1CCCNC1 [AZD7762] + CC(=O)Nc1cccc(-n2c(=O)n(C3CC3)c(=O)c3c(Nc4ccc(I)cc4F)n(C)c(=O)c(C)c32)c1 [Trametinib] (partner 0.02 µM) ?
Reply | 0.67

Ask | Could you share which relative viability value was measured for NC(=O)Nc1cc(-c2cccc(F)c2)sc1C(=O)N[C@H]1CCCNC1 [AZD7762] + C[C@@H](Oc1cc(-c2cnn(C3CCNCC3)c2)cnc1N)c1c(Cl)ccc(F)c1Cl [Crizotinib] (partner 1 µM) ?
Reply | 0.546

Ask | Could you share which relative viability value was measured for NC(=O)Nc1cc(-c2cccc(F)c2)sc1C(=O)N[C@H]1CCCNC1 [AZD7762] + Nc1nc2[nH]cc(CCc3ccc(C(=O)N[C@@H](CCC(=O)O)C(=O)O)cc3)c2c(=O)[nH]1 [Pemetrexed] (partner 0.2 µM) ?
Reply | 0.349
